Tested on: Cbl-b (aa36-427) (Homo sapiens)
Construct: Cbl-b (aa36-427, in-house); made in house
Assay details: Co-expressed Cbl-b with BirA biochemical assay (CBLB/E2-Ub binding, HTRF)
Observable: pIC50
One number for each entry, as −log10 of the molar value.

For this molecule ( CC(C)CNCc1cc(C(=O)Nc2cncc([C@]3(c4nncn4C)C[C@@H](C)C3)c2)nc2c(Cl)c[nH]c12 [Compound B55] ), measured pIC50 is 8.80

---

Tested on: Cbl-b (aa36-427) (Homo sapiens, UniProt Q13191)
Construct: Cbl-b (aa36-427, in-house); made in house
Sequence (Q13191 36-427): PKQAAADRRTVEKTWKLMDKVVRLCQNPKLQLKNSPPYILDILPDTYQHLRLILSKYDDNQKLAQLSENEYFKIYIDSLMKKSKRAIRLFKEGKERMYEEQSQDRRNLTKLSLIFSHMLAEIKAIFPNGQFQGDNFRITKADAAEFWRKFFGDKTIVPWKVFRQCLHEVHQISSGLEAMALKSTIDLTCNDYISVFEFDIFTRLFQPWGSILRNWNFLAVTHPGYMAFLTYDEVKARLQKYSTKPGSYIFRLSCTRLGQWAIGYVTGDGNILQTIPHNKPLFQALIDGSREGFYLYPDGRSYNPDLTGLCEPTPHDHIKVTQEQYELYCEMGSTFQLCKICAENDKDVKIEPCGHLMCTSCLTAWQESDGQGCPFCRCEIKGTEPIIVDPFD
Assay details: Co-expressed Cbl-b with BirA biochemical assay (CBLB/E2-Ub binding, HTRF)
Setup conditions: 0.6 nM Cbl-b co-expressed with BirA, HTRF; read-out: co-express CBLB/E2-Ub-binding assay IC50
Observable: pIC50
Give bare numbers, as −log10 of the molar value.

Consider the worked cases shown below.
C[C@H]1CCCN(Cc2cc(C(=O)Nc3cccc([C@]4(c5nncn5C)C[C@@H](C)C4)c3)c3nc(F)cn3c2)C1; 8.22
Cn1cnnc1[C@]1(c2cccc(NC(=O)c3cc(CN[C@H]4CCC(F)(F)C4)cn4ccnc34)c2)C[C@H](CC#N)C1; 8.85
Cn1cnnc1[C@]1(c2cccc(NC(=O)c3cc(CNCC4(C)CCC4)cn4c(Cl)cnc34)c2)C[C@H](CC#N)C1; 8.66
Cn1cnnc1[C@]1(c2cccc(NC(=O)c3cc(CNCC4(C)CCC4)c4c(n3)C(C)(C)CO4)c2)C[C@H](CC#N)C1; 8.55
C[C@H]1CCCN(Cc2cc(C(=O)Nc3cccc([C@]4(Cc5nncn5C)C[C@@H](C#N)C4)c3)nc3c2NCC32CC2)C1; 8.82

For this molecule ( C[C@H]1CCCN(Cc2cc(C(=O)Nc3cccc([C@]4(Cc5nncn5C)C[C@@H](C#N)C4)c3)nc3c2CCC3(C)C)C1 ), measured pIC50 is 9.00
